B1: TMEM192 (parent)
chain: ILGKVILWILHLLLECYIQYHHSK

- Variants of: B1
- Test: protein stability index of a GFP-peptide fusion (GPS, HEK-293T) (PSI 1-6); higher = more stable;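 further: lentivirally expressed fusions sorted by FACS into six bins by GFP to DsRed ratio, PSI derived from sequencing read proportions per bin multiplied by bin number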
- Settings: c terminus: a fixed tail appended
Hi, to clarify the labels: Yes covers protein stability index from 3 upward, No covers anything below 3.

Answered examples (6):
E15S; No
E15C; No
I9D; No
Y20T; Yes
C16Y; Yes
L2K; Yes

Does protein stability index meet or surpass 3 for Y17G ?
Yes

Is the recorded value of protein stability index equal to or greater than 3 for this variant? V5D
Yes

Hi team, for Q19R , is the recorded protein stability index at or above 3?
No

Kindly determine if protein stability index recorded for S23R is above or exactly 3.
Yes

Determine whether measured protein stability index meets or exceeds 3 for I6N
No
